- Tested On: PARP7 (Homo sapiens (Human), UniProt Q7Z3E1)
- Sequence (Q7Z3E1 whole entry): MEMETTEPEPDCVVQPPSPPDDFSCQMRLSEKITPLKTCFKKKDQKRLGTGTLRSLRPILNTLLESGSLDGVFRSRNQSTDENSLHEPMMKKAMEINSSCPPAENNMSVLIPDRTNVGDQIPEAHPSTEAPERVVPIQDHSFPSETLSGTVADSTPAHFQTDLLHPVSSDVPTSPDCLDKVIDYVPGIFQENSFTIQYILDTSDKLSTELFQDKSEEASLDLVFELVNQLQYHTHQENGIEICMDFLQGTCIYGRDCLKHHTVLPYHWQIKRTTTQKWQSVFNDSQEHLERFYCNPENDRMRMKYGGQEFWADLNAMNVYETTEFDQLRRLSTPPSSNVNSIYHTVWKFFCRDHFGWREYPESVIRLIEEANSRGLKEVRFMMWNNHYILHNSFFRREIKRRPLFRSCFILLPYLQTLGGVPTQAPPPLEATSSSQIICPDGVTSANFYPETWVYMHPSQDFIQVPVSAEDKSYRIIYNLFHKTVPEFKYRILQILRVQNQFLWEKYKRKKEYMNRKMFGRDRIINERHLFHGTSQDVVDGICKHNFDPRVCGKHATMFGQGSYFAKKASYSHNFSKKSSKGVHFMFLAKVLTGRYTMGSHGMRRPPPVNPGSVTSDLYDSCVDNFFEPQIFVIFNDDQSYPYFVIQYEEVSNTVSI
- Assay Procedure: Enzymatic assay for inhibition of PARP7: TR-FRET displacement of biotinylated Probe A from the TIPARP active site
- Particulars: Table A-1
Reported values of IC50 for individual entries

# Compound, IC50
records = [
    ("N#Cc1ccc(N2CCN(C(=O)C[C@H]3CC[C@@H](COc4cn[nH]c(=O)c4C(F)(F)F)O3)CC2)nc1 [Example 580 Isomer C]", "< 0.1 µM"),
    ("N#Cc1ccc(N2CCN(C(=O)CCOCCNc3cn[nH]c(=O)c3C(F)(F)F)CC2)nc1", "< 0.1 µM"),
    ("O=C(C[C@H]1CC[C@H](CNc2cn[nH]c(=O)c2C(F)(F)F)O1)N1CCN(c2ncc(Cl)cn2)CC1 (single isomer, unassigned) [Example 567 Isomer D]", "< 0.1 µM"),
    ("CN(c1cccc2c1CN(c1cn[nH]c(=O)c1C(F)(F)F)C2)C1CCOCC1", "0.1 to 1 µM"),
    ("O=c1[nH]ncc(N2Cc3ccccc3[C@@H]2CO)c1C(F)(F)F", "≥ 1 µM"),
]

Consider the compound CN(C)CC(COCCC(=O)N1CCN(c2ccc(C#N)cn2)CC1)Oc1cn[nH]c(=O)c1C(F)(F)F (centres unmarked) and give its measured IC50.
< 0.1 µM

Try "COC[C@@H](COCCC(=O)N1CCN(c2ncc(C(F)(F)F)cn2)CC1)Nc1cn[nH]c(=O)c1C(F)(F)F" next.
< 0.1 µM
